- Test system: utricular epithelium from seven day-old rats
- assay: BrdU incorporation (mitogenic activity) in primary culture of infant rat utricular sensory epithelium
- Assay type: cell-based
- stated.conditions: 50 ng/ml, seventy-two hours culture, infant (seven day-old) rat epithelium; control 50±7
measured.property: number of BrdU-positive nuclei per piece of epithelium
Provide a numeric answer; units are not to be included.

# number of BrdU-positive nuclei per piece of epithelium lookup, item CNTF: recombinant derived ciliary-derived neurotrophic factor (CNTF) (protein, UniProt P26441 1-200, looked up) Ciliary neurotrophic factor: MAFTEHSPLTPHRRDLCSRSIWLARKIRSDLTALTESYVKHQGLNKNINLDSADGMPVASTDQWSELTEAERLQENLQAYRTFHVLLARLLEDQQVHFTPTEGDFHQAIHTLLLQVAAFAYQIEELMILLEYKIPRNEADGMPINVGDGGLFEKKLWGLKVLQELSQWTVRSIHDLRFISSHQTGIPARGSHYIANNKKM 23

Another molecule: GDNF: recombinant derived glial-derived neurotrophic factor (GDNF) (protein, UniProt P39905 78-211, looked up) Glial cell line-derived …: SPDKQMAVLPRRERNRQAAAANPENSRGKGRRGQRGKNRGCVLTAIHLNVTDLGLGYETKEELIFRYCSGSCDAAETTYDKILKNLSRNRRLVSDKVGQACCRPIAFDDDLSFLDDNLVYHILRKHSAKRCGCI 37

Another molecule: KGF: recombinant derived keratinocyte growth factor (KGF) (protein, UniProt P21781 32-194, looked up) Fibroblast growth factor 7: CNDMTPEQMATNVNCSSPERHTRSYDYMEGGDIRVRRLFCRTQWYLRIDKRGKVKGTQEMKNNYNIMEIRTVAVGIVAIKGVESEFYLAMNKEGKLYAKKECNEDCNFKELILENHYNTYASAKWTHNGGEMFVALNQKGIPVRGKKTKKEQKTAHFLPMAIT 89
